Test system: HL-60(TB) leukemia
run_description: NCI-60 one-dose screen, 48 h (100 = growth as untreated, 0 = no growth, -100 = all killed)
experimental_parameters: 10 µM unless noted
The panel holds about 83,000 compounds, 20% with a hit somewhere; the sample as a whole holds those more often.
Ranges used to classify growth: bottom end: < 10%; midrange: ≥ 10% and < 70%; top end: ≥ 70%

Ask: For the record COC(=O)CCSC1=C(C)C(=O)c2ccccc2C1=O , report the class its growth corresponds to.
Reply: midrange

Ask: For the record CNC(=O)c1cc(N2CCc3cc(NC(=O)Nc4ccc(Cl)c(C(F)(F)F)c4)ccc32)ccn1 , report the class its growth corresponds to.
Reply: midrange

Ask: For the record O=C(Nc1ccc(F)c(F)c1)c1cc(-c2ccc(F)cc2F)ccc1O , report the class its growth corresponds to.
Reply: bottom end

Ask: For the record O=C(Nc1nc2ccc([N+](=O)[O-])cc2s1)Nc1ccccc1Cl , report the class its growth corresponds to.
Reply: midrange

Ask: For the record COc1ccccc1/C=C/C=N/NC1=NC2C(S1)N(C)C(=O)N2C (configuration not stated) , report the class its growth corresponds to.
Reply: bottom end

Ask: For the record COc1ccc(/C=C/C(=O)c2nnn(-c3ccc(C(=O)O)cc3)c2C)cc1OC , report the class its growth corresponds to.
Reply: top end

Ask: For the record CN1CCN(Cc2ccc(NC(=O)c3cncc(C#Cc4cnc5ccc(N6CCN(C)CC6)nn45)c3)cc2C(F)(F)F)CC1 , report the class its growth corresponds to.
Reply: bottom end

Ask: For the record COc1ccc(NC(=O)Nc2ccc3c(ccn3C(=O)c3cccc(F)c3)c2)cc1 , report the class its growth corresponds to.
Reply: top end

Ask: For the record O=[N+]([O-])c1ccc(-c2nnc(SCc3ccc(O)c4ncccc34)o2)cc1 , report the class its growth corresponds to.
Reply: midrange

Ask: For the record C=C(C=O)[C@@H]1CC[C@]2(COC(C)=O)CC[C@]3(C)C(CC[C@@H]4[C@@]5(C)CC[C@H](OC(C)=O)C(C)(C)[C@@H]5CC[C@]43C)[C@@H]12 (some centres not stated) , report the class its growth corresponds to.
Reply: bottom end

Ask: For the record O=S(=O)(NCCNc1nccc(-n2cnc3ccccc32)n1)c1ccc(C(F)(F)F)cc1 , report the class its growth corresponds to.
Reply: top end

Ask: For the record COc1ccc(/C=N/NC(=O)CSc2nc(-c3cnccn3)cc(-c3cccs3)c2C#N)cc1 , report the class its growth corresponds to.
Reply: top end

Ask: For the record CC(=O)c1c([Si](C)(C)C)c2cc(C#N)ccn2c1C(=O)c1ccc(Br)cc1 , report the class its growth corresponds to.
Reply: top end

Ask: For the record Cc1c(F)cc(C(N)=O)cc1NCC(=O)Nc1ccc([N+](=O)[O-])cc1 , report the class its growth corresponds to.
Reply: top end

Ask: For the record Cc1cc(=O)[nH]c(O)c1C#N , report the class its growth corresponds to.
Reply: top end

Ask: For the record CN(C)c1ccc(-c2c(NC(C)(C)C)nc3c(OCCc4ccccc4)cccn23)cc1 , report the class its growth corresponds to.
Reply: bottom end

Ask: For the record CN(C)C(=O)c1ccccc1-n1cnc2ccccc2c1=O , report the class its growth corresponds to.
Reply: top end

Ask: For the record Clc1ccc2[nH]cc(-c3nn4cc(-c5ccncc5)nc4s3)c2c1 , report the class its growth corresponds to.
Reply: top end

Ask: For the record NS(=O)(=O)c1ccc(Nc2nc(Nc3ccccc3)nc(N3N=C(c4ccc(Cl)cc4)CC3c3ccc(Cl)cc3)n2)cc1 (configuration not stated) , report the class its growth corresponds to.
Reply: midrange

Ask: For the record O=C1C(SCc2ccccc2)=C(Cl)CN1c1ccc(Cl)cc1 , report the class its growth corresponds to.
Reply: midrange

Ask: For the record C#Cc1nc(C(=O)NCCC(=O)Nc2ccc(NC(=O)c3ccc(/C=C/C(=O)c4nccn4C)cc3)cc2)cs1 , report the class its growth corresponds to.
Reply: midrange

Ask: For the record C=CCSC1=NC2C(N(CC)C(=O)N2CC)N1/N=C/C=C/c1ccccc1OC (configuration not stated) , report the class its growth corresponds to.
Reply: midrange

Ask: For the record Cc1cc2nc(C(Cl)Cl)nc(-c3ccco3)n2n1 , report the class its growth corresponds to.
Reply: bottom end

Ask: For the record O=C1[C@@H]2Cc3c([nH]c4ccccc34)[C@H](c3c(Cl)cccc3Cl)N2C(=O)CN1C1CCN(CC2CCCCC2)CC1 , report the class its growth corresponds to.
Reply: bottom end

Ask: For the record Cc1ccc([C@H]2c3[nH]c4ccccc4c3C[C@H]3C(=O)N(CCCCCCC(=O)NO)CC(=O)N23)s1 , report the class its growth corresponds to.
Reply: midrange

Ask: For the record CNC(=O)c1cc(N2CCc3cc(NC(=O)Nc4ccc(Cl)c(Cl)c4)ccc32)ccn1 , report the class its growth corresponds to.
Reply: top end

Ask: For the record COC(=O)C(Cc1ccccc1)Nc1nc(NC(Cc2ccccc2)C(=O)OC)nc(N2CCOCC2)n1 (configuration not stated) , report the class its growth corresponds to.
Reply: top end

Ask: For the record Nc1c(C(=O)c2ccccc2)sc2nc(-c3cnccn3)cc(-c3cccs3)c12 , report the class its growth corresponds to.
Reply: top end

Ask: For the record CN1CCN(c2ccc(C(=O)/C=C/c3ccc(Cl)c(C(F)(F)F)c3)cc2)CC1 , report the class its growth corresponds to.
Reply: bottom end

Ask: For the record O=C(N/N=C/c1ccc(Br)s1)c1[nH]c2ccc(Br)cc2c1-c1ccccc1 , report the class its growth corresponds to.
Reply: bottom end

Ask: For the record CCc1ccc(NC(=O)N[C@@H](Cc2cccc(F)c2)C(=O)N[C@@H]2C(=O)N3CCC[C@H]3C(=O)N3CCCC[C@H]3C(=O)N[C@@H](CO)C(=O)N3C[C@H](C)C[C@H]3C(=O)O[C@H]2C)c(F)c1 , report the class its growth corresponds to.
Reply: midrange

Ask: For the record CCC1=Cc2c(OC)cccc2OC12C=Cc1c(OC)cccc1O2 (configuration not stated) , report the class its growth corresponds to.
Reply: bottom end

Ask: For the record CCc1nnc(NC(=O)c2cc(-c3ccc(Cl)cc3Cl)oc2C)s1 , report the class its growth corresponds to.
Reply: top end

Ask: For the record N#Cc1cnc2ccc(-c3cnc4n[nH]nc4c3)cc2c1N1CCc2cc(F)c(Cl)cc21 , report the class its growth corresponds to.
Reply: midrange

Ask: For the record Cn1cc(-c2cc(N)n3nc(-c4cn(C)c5ccc(Cl)cc45)cc3n2)c2cc(Cl)ccc21 , report the class its growth corresponds to.
Reply: midrange

Ask: For the record CC[C@@H](CO)Nc1ccc2ncc(C#Cc3cncc(C(=O)Nc4ccc(CN5CCN(C)CC5)c(C(F)(F)F)c4)c3)n2n1 , report the class its growth corresponds to.
Reply: bottom end

----------
Tested on: HL-60(TB) leukemia
run_description: NCI-60 one-dose screen, 48 h
experimental_parameters: 10 µM unless noted
About 83,000 compounds went through this panel and 20% of them were active in at least one assay; those are over-represented in the sample as a whole. Activity calls are given as the source filed them. How the source made its calls: active means growth percent below 10; inactive means the rest.
Just give me one of these, please: true for active, false for inactive

Ask: Called result for CN(C)CCn1c2ccc(N)cc2c2nc3ccccc3nc21
Reply: false

Ask: Called result for CCCCN1C(=O)/C(=c2\sc3n(c2=O)C2C(NN=3)N(CC)C(=O)N2CC)c2cc(C)ccc21 (stereo unspecified)
Reply: false

Ask: Called result for C#CCOc1ccc(/C=N\Nc2nc(-c3ccc(C)cc3)cs2)cc1OC
Reply: false

Ask: Called result for C#Cc1nc(C2=C(C)C(OC(=O)CCC(=O)O)CC2)cs1 (stereo unspecified)
Reply: false

Ask: Called result for Nc1nc(Nc2ccccc2SSc2ccccc2Nc2nc(N)nc(-c3cccc(Br)c3)n2)nc(-c2cccc(Br)c2)n1
Reply: false

Ask: Called result for C/C(=N\NC(=O)/C=C/CC(=O)O)c1nnn(-c2ccc([N+](=O)[O-])cc2)c1C
Reply: false

Ask: Called result for CC[C@]12C=CCN3CC[C@]4(C(=C(C(=O)OC)C1)Nc1cc5c(cc14)[C@@H]1[C@H](O5)[C@@H](O)[C@@]4(CC)CC(C(=O)OC)=C5Nc6cc(O)ccc6[C@@]56CCN1C46)C32 (stereo partly specified)
Reply: true

Ask: Called result for Brc1ccccc1/C=N/Nc1nc(N/N=C/c2ccccc2Br)nc(N2CCOCC2)n1
Reply: false

Ask: Called result for CCOC(=O)c1ccc(NC2=CC(=O)C(C)=C(C)C2=O)cc1
Reply: false

Ask: Called result for CCNCCOc1ccc(/C(=C(/CC)c2ccc(Cl)cc2)c2ccc(OCCCN(C)C)cc2)cc1
Reply: true

Ask: Called result for O=C(Nc1ccc(N2CCOCC2)cc1)Nc1ccc2c(ccn2C(=O)c2cccc(F)c2)c1
Reply: false

Ask: Called result for C#C[C@]1(O)CC[C@H]2[C@@H]3CC=C4c5sc(Nc6ccc(OC)nc6)nc5CC[C@]4(C)[C@H]3CC[C@@]21C
Reply: false

Ask: Called result for O=C(CSc1nc2ccccc2c(=O)n1-c1ccccc1)Nc1cccc(C(=O)/C=C/c2ccccc2)c1
Reply: false

Ask: Called result for CC/C(=C/c1cc(OC)ccc1O)c1ccc2cc(OC)ccc2[o+]1
Reply: true

Ask: Called result for CCCCOc1ccc(S(=O)(=O)N2CCN(c3nccc(N4CCOCC4)n3)CC2)cc1
Reply: false

Ask: Called result for O=C(Nc1cccc(Cl)c1)Nc1nc2ccc([N+](=O)[O-])cc2o1
Reply: true

Ask: Called result for CN1CCN(Cc2ccc(NC(=O)c3cncc(C#Cc4cnc5ccc(NCCCO)nn45)c3)cc2C(F)(F)F)CC1
Reply: true

Ask: Called result for NC(=O)c1c(NC(=O)c2ccc(C(F)(F)F)cc2)sc2c1CCC(=O)C2
Reply: true

Ask: Called result for O=C(CSc1nc2ccccc2c(=O)n1-c1ccccc1)Nc1cccc(C(=O)/C=C/c2ccccc2Cl)c1
Reply: false

Ask: Called result for COc1ccccc1N1CCN(C2=CC(=O)C(C)=C(C)C2=O)CC1
Reply: false

Ask: Called result for Nc1nc(N)c2c(n1)NC(c1ccc(Cl)cc1)CC(c1ccc(Nc3nc(NCCO)nc(Nc4ccc(Cl)cc4)n3)cc1)=N2 (stereo unspecified)
Reply: true

Ask: Called result for CCNC(=O)Oc1ccc(/C(=C(/C)c2ccc(Cl)cc2)c2ccc(OCCN(C)C)cc2)cc1
Reply: false

Ask: Called result for O=C1Nc2ccccc2/C1=C/c1ccc(CO)n1-c1ccc(Cl)cc1
Reply: false

Ask: Called result for C#C[C@]1(O)CC[C@H]2[C@@H]3CC=C4c5sc(C6CC6)nc5CC[C@]4(C)[C@H]3CC[C@@]21C
Reply: false

Ask: Called result for Cc1[nH]c(C(=O)Nc2ccccc2OCc2cccc(C(=O)NC3CCCNC3)c2)c(Cl)c1Cl (stereo unspecified)
Reply: true

Ask: Called result for C#Cc1nc(C2=C(C)C(O)CC2)cs1 (stereo unspecified)
Reply: false

Ask: Called result for COc1c(N2CC3CCCNC3C2)c(F)cc2c(=O)c(C(=O)N/N=C/c3ccc(F)cc3)cn(C3CC3)c12 (stereo unspecified)
Reply: false

Ask: Called result for CCCCN1C(=O)/C(=c2\sc3n(c2=O)C2C(NN=3)N(CC)C(=O)N2CC)c2cc(Cl)ccc21 (stereo unspecified)
Reply: false

Ask: Called result for CC(=O)Oc1ccc(CCN2C(=O)CSC2=S)cc1
Reply: false

Ask: Called result for C=CCn1c(SCC(=O)c2ccc(OC)cc2)nnc1-c1ccc(OC)cc1
Reply: false

Ask: Called result for CCCCCc1ccc(S(=O)(=O)Nc2cc(-c3csc(NC(=O)CN4CCN(C)CC4)n3)ccc2OC)cc1
Reply: true

Ask: Called result for COc1cc(/C=C/C(=O)c2ccc(C(F)(F)F)cc2)ccc1Oc1nc(NCCO)nc(N2CCOCC2)n1
Reply: false

Ask: Called result for O=C(CN1CCN(c2cc(=O)n(-c3ccccc3)c3ccccc23)CC1)Nc1ccc(F)cc1
Reply: false

Ask: Called result for Cc1c(Cl)cccc1S(=O)(=O)Nc1ccc2c(c1)C(=O)N(C1CCC(=O)NC1=O)C2=O (stereo unspecified)
Reply: true

Ask: Called result for C/C(=C(/C)C1CC1CCN(C(=O)c1ccc([N+](=O)[O-])cc1)S(=O)(=O)c1ccc(C)cc1)C1CCCCC1 (stereo unspecified)
Reply: false

Ask: Called result for CC1(C)CC[C@]2(C(=O)NCCCCCCN(CCCN)CCCN)CC[C@]3(C)C(=CC[C@@H]4[C@@]5(C)CC[C@H](O)C(C)(C)[C@@H]5CC[C@]43C)[C@@H]2C1
Reply: false
